These entries and their values trace back to patent US20230123334A1.

tested on: HEK293 cells; assay: Preliminary screening as mRNA vectors, EGFP mRNA transfection of HEK293 cells; format: cell-based; settings: HEK293 cells, 96-well plates, EGFP mRNA 50 ng per well; percentage of GFP fluorescent cells relative to total number of cells (Hoechst)
observation type: Absolute mRNA transfection efficiency in HEK293 cells (%)
Report the value in % with no unit label.

>>> print(df.to_string())
                                item_smiles  assay_system  value_unit  value_observed
0  CCCCCCCCCCCCSc1nc(NCCCN2CCOCC2)nc(SCCCCCCCCCC)n1  HEK293 cells           %             5.4

## Task Given the entry `CCCCCCCCCCCCCCCCCCNc1nc(NCCCCCC)nc(NCCCN(C)C)n1` , what Absolute mRNA transfection efficiency in HEK293 cells was observed with HEK293 cells?
## Result 0.1

## Task Also check `CCCCCCCCCCCCCCCCCCSc1nc(NCCN(C)C)nc(SCCCCCCCCCC)n1`
## Result 3.5

====

tested on: HEK293 cells; test: Preliminary screening as mRNA vectors, EGFP mRNA transfection of HEK293 cells; assay type: cell-based; conditions: EGFP mRNA 50 ng per well, 96-well plates; percentage of GFP fluorescent cells relative to total number of cells (Hoechst)
observation type: Absolute mRNA transfection efficiency in HEK293 cells (%)
Use % as the unit, but write only the number.

As a guide, the following entries are already answered.
                                item_smiles  value_observed
0  CCCCCCCCCCCCN(CCCCCCCCCCCC)c1nc(NCCCN2CCOCC2)nc(SCCCCCCCCCC)n1             0.0
1  CCCCCCCCCCCNc1nc(NCC2CCN(C)CC2)nc(SCCCCCCCCC)n1            66.0
2  CCCCCCCCCCCCCCSc1nc(NCCCCCCCCCCC)nc(NCCN2CCN(C)CC2)n1            19.8

## Task Checklist item: Absolute mRNA transfection efficiency in HEK293 cells tested on HEK293 cells, entry `CCCCCCCCCCCCCCSc1nc(NCCCCCCCC)nc(NCCN2CCCCC2)n1` , value?
## Result 3.2

## Task Now consider `CCCCCCCCCCCCCCCCCCSc1nc(NCCCCCC)nc(NCCN2CCCC2)n1` .
## Result 58.9

## Task Now give it for `CCCCCCCCCCCCCCCSc1nc(NCCCCCCCC)nc(NCCN2CCOCC2)n1` too.
## Result 2.2

## Task Then `CCCCCCCCCCCCCCCNc1nc(NCCN2CCOCC2)nc(SCCCCCCCCCC)n1` ?
## Result 1.3

## Task `CCCCCCCCCCCCCCCSc1nc(NCCCCCCC)nc(NCCN2CCOCC2)n1` , same question.
## Result 4.5

## Task Please give the result for `CCCCCCCCCCCCCCSc1nc(NCCN2CCOCC2)nc(N(CCCCCCCCCCCC)CCCCCCCCCCCC)n1` too.
## Result 0.0

====

tested on: BALB/c mice; experiment: In vivo delivery of luciferase mRNA (Fluc mRNA) by lipid nanoparticles, in vivo imaging; conditions: subcutaneous administration, 0.5 mg/kg Fluc mRNA, after 12 hours
Parameter: Fluorescence intensity (expression intensity of Fluc mRNA). Scope: all listed entries.
Just the number, please, no unit after it.

## Task # Fluorescence intensity (expression intensity of Fluc mRNA) lookup, item `CCCCCCCCCCCCCCCCSc1nc(NCCCN2CCN(C)CC2)nc(SCCCCCCCC)n1`
## Result 4.2E+06

## Task Param item: `CCCCCCCCCCCCCCCCSc1nc(NCCCCCCCCC)nc(NCCN2CCCC2)n1`
## Result 2.7E+07

## Task What about this compound? `CCCCCCCCCCCCCCCCSc1nc(NCC2CCN(C)CC2)nc(SCCCCCCCCCC)n1`
## Result 4.7E+07

## Task // query: `CCCCCCCCCCCCCCCSc1nc(NCCCCCCCCCCC)nc(NCCN2CCN(C)CC2)n1`
## Result 1.9E+08

====

Measured Absolute DNA transfection efficiency in MCF7 cells by item
system: MCF7 cells; assay: Transfection of MCF7 cell line, DNA vectors; format: cell-based; design: concentration or dose not given beside the values; details: plasmid DNA, GFP cells / total cells
Give a bare numeral; the unit % is implied.

Sample records with Absolute DNA transfection efficiency in MCF7 cells:
>>> print(df.to_string())
                                   compound  value_unit  value_observed
0  CCCCCCCCCCCSc1nc(NCCCCCCCC)nc(NCCCN2CCN(C)CC2)n1 [Compound S11N8D9]           %            20.9
1  CCCCCCCCCCCCNc1nc(NCCCN(C)C)nc(SCCCCCCCCC)n1 [Compound S9N12D6]           %            21.8

Now examine the next entry.
## Task Query (compound): CCCCCCCCCCCCNc1nc(NCCCN2CCOCC2)nc(SCCCCCCCC)n1 [Compound S8N12D8] ; field requested: Absolute DNA transfection efficiency in MCF7 cells
## Result 2.1

====

tested on: HEK293 cells; test: Preliminary screening as DNA vectors, GFP transfection of HEK293 cells; assay type: cell-based; details: HEK293 cells; lipid/DOPE liposome with 75 ng plasmid DNA (psin-EGFP-IRES-Puro); number of cells expressing GFP divided by total number of nuclei (Hoechst)
1 (yes) means recorded Absolute DNA transfection efficiency in HEK293 cells is 0.5% or above; 0 (no) means it is below 0.5%.

Use these answered entries as a reference point.
In [3]: df
Out[3]:
                                item_smiles    group
0  CCCCCCCCCCCCNc1nc(NCCCCCCCC)nc(NCCCN(C)C)n1   0 (no)
1     CCCCCCCNc1nc(NCCCCCC)nc(NCCN2CCCC2)n1   0 (no)
2  CCCCCCCCCCCCCCCSc1nc(NCCN2CCCCC2)nc(SCCCCCCCCCCCC)n1  1 (yes)
3  CCCCCCCCCCCNc1nc(NCCCCCCCCCCC)nc(NCCCN(C)C)n1  1 (yes)
4  CCCCCCCCCCCCN(CCCCCCCCCCCC)c1nc(NCCCCCCCCCCC)nc(NCCN2CCOCC2)n1   0 (no)
5    CCCCCCCCCNc1nc(NCCCCCC)nc(NCCCN(C)C)n1   0 (no)
6  CCCCCCCCCCCCCCCCCCNc1nc(NCCCCCCCCCCCCCCC)nc(NCC2CCN(C)CC2)n1  1 (yes)
7  CCCCCCCCCCCCCNc1nc(NCCCCCC)nc(NCCCN(C)C)n1   0 (no)

## Task Check this compound for Absolute DNA transfection efficiency in HEK293 cells at or above 0.5%: `CCCCCCCCCCCCN(CCCCCCCCCCCC)c1nc(NCCCCCCCC)nc(NCCN2CCN(C)CC2)n1`
## Result 0 (no)

====

Entries and their measured Absolute mRNA transfection efficiency in HEK293 cells follow.
test system: HEK293 cells; assay: Preliminary screening as mRNA vectors, EGFP mRNA transfection of HEK293 cells; type: cell-based; settings: HEK293 cells, 96-well plates, EGFP mRNA 50 ng per well; percentage of GFP fluorescent cells relative to total number of cells (Hoechst)
Reply numerically in %, unit not repeated.

>>> df
                                item_smiles  assay_system  value_observed
0  CCCCCCCCCCCCCCSc1nc(NCC2CCN(C)CC2)nc(SCCCCCCCCC)n1  HEK293 cells            91.0
1  CCCCCCCCCCCCCCCCCCNc1nc(NCCCCCCCCCCCCCCCC)nc(NCCN2CCCC2)n1  HEK293 cells            20.8
2  CCCCCCCCCCCCCNc1nc(NCCCCCCC)nc(NCCN2CCOCC2)n1  HEK293 cells             0.0
3  CCCCCCCCCCCCN(CCCCCCCCCCCC)c1nc(NCC2CCN(C)CC2)nc(N(CCCCCCCCCCCC)CCCCCCCCCCCC)n1  HEK293 cells             3.3
4  CCCCCCCCCCCCCCCNc1nc(NCCCCCCCCCCCCCCC)nc(NCCN(CC)CC)n1  HEK293 cells             0.0

// below: Absolute mRNA transfection efficiency in HEK293 cells requested for another molecule
## Task Please state recorded Absolute mRNA transfection efficiency in HEK293 cells (tested on HEK293 cells) of `CCCCCCCCCCCCCCSc1nc(NCCN2CCOCC2)nc(SCCCCCCCCCCCCCC)n1`
## Result 0.0
